- Test system: IGROV-1
- MEASUREMENT PROTOCOL: NCI tumour cell line growth inhibition, 48 h
The source made the active and inactive calls. Cut-off read from the data, not from the text of the source: active = GI50 up to about 1.1 µM and inactive = higher.
I would appreciate it if you answered using one of these outcomes: active, inactive

{"COMPOUND": "[O-][n+]1c2c([n+]([O-])c3ccccc31)CCCCCCCCCC2", "CLASS NAME": "inactive"}

Field: outcome | Entry: `COc1ccc(/N=C(/SS/C(=N/c2ccc(OC)cc2)c2ccc([N+](=O)[O-])o2)c2ccc([N+](=O)[O-])o2)cc1` inactive

Lab log entry: O=C(CC(NC(=O)C(F)(F)F)C(=O)O)OCc1ccccc1 (stereo not given) — outcome as called in the assay? inactive

What is the recorded call for this compound in the test? `O=C1/C(=C/c2ccccc2)CN(C(=O)C(F)(F)F)C/C1=C\c1ccccc1` inactive

Hi, sorry to bother you, what did the test record for `NC(=S)N/N=C/c1ccc(OC(=O)COc2ccccc2Cl)cn1` ? inactive

What classification did `CCCCCC(=O)OC[n+]1ccc(-c2c(COC(=O)NC(C)C)c(COC(=O)NC(C)C)c3n2CCC3)cc1` end up with in this test? inactive

Could you kindly confirm the outcome this assay logged for `CCCNc1ncnc2c1cnn2C` ? inactive

Name the outcome recorded for `O=C(O)Cn1ccc(=O)c2cc([N+](=O)[O-])ccc21` in the assay. inactive

What was the test verdict on `CC(C)(/C=N/O)/[N+]([O-])=C/c1ccccc1` ? inactive

Record lookup: outcome of this test for `CC[C@H](CC[C@@H](C)[C@H]1CC[C@H]2[C@@H]3CC=C4C[C@@H](O)CC[C@]4(C)[C@H]3CC[C@]12C)C(C)C` ? inactive

Test call, this compound: CC1C[C@H](C)CC(C(O)CC2CC(=O)N(Cc3ccccc3)C(=O)C2)C1O (stereo not given in full) inactive

Kindly provide the recorded test outcome for the following compound: `COc1ccc2nc3cc(Cl)ccc3c(NCCCN(CCCl)CCCl)c2c1` active

Check the results log: what was the call for COC(=O)C1OC(O[C@H]2CC[C@]3(C)[C@H]4CC=C5[C@@H]6CC(C)(C)CC[C@]6(C(=O)OC)CC[C@@]5(C)[C@]4(C)CC[C@H]3C2(C)C)C(O)C(O)C1O (stereo not given in full) ? inactive

For Oc1ccc(Cl)cc1C1=NC(NCN2CCN(CNC3=NC(c4ccccc4)CC(c4cc(Cl)ccc4O)=N3)CC2)=NC(c2ccccc2)C1 (stereo not given) , which call appears in the assay record? inactive

Hello, I am checking results. What call was entered for `CC(=C/C=C/C=C(C)\C=C\C=C(\C)C(=O)O)/C=C/C=C(/C)C(=O)O` ? inactive

Recorded call for `CCN1CCc2sc3nc(S)n(C)c(=O)c3c2C1` ? inactive

Check the results log: what was the call for CSc1nc(NC2OCC(OC(C)=O)C(OC(C)=O)C2OC(C)=O)c2c(n1)OCC2=O (stereo not given) ? inactive

Status in this test for CCC1(O)CC2CC(=O)OC2C1O (stereo not given) ? inactive

Short answer needed: outcome of this test for CCO/C=N/C1=C(C#N)C(c2ccc(Cl)cc2)c2c(-c3ccccc3)nn(-c3ccccc3)c2O1 (stereo not given) ? inactive

I'd appreciate the recorded outcome for `SCCCSCCSCCCSCCS` from this test. inactive

Can you look up the reported call for `CCOC(=O)[C@@H]1C[C@H]1c1ccc(O)c(O)c1` for me? inactive

* * *

Consider the following compounds; for each one, report its GI50.
- System: OVCAR-4
- MEASUREMENT PROTOCOL: NCI tumour cell line growth inhibition, 48 h
The source made the active and inactive calls. Cut-off read from the data, not from the text of the source: active = GI50 up to about 1.1 µM and inactive = higher.

Known GI50 results, listed for orientation:
{"COMPOUND": "O=c1[nH]c2cc([N+](=O)[O-])c(N(CCO)CCO)c([N+](=O)[O-])c2[nH]1", "TEST VALUE": "36 µM (inactive)"}
{"COMPOUND": "CCOC(=O)CNC(=O)N(CC)C12CC3CC(CC(C3)C1)C2", "TEST VALUE": "188 µM (inactive)"}
{"COMPOUND": "CN1N(c2ccccc2)C(=O)C2=NC=C(C(=O)c3ccccc3)C(=N)C21C (stereo unspecified)", "TEST VALUE": "> 100 µM (inactive)"}
{"COMPOUND": "COc1cc2c(cc1OC)-c1cc3ccc(OC)c(OC)c3c[n+]1CC2 [PALMATINE CHLORIDE]", "TEST VALUE": "> 100 µM (inactive)"}
{"COMPOUND": "COc1cc(O)ccc1C(=S)SC", "TEST VALUE": "52 µM (inactive)"}

I need GI50 for every entry listed below, if you could help.
1. O=C1CSC(c2ccc([N+](=O)[O-])cc2)N1c1nc(-c2ccc3c(c2)CCCC3)cs1 (stereo unspecified)
2. O=C(O)CC1NCc2cc3ccccc3nc21 (stereo unspecified)
3. COc1cc(-c2c[nH]c3ccccc23)nc(-c2c[nH]c3ccccc23)n1
4. O=C1c2ccccc2C(=O)c2c1ccc1c2N=C(c2ccc(F)cc2)CC(c2ccc(Cl)c(Cl)c2)N1 (stereo unspecified)
5. CCC1OC(=O)C(C)C(OC2CC(C)(O)C(O)C(C)O2)C(C)C(O)C(C)(O)CC(C)C(=O)C(C)C(O)C1C (stereo unspecified)
6. N#CCc1nc2cc(C(F)(F)F)ccc2s1
7. CC1CC2C3CC(F)C4=CC(=O)C=CC4(C)C3(F)C(O)CC2(C)C1(O)C(=O)COC(=O)C(C)(C)C (stereo unspecified)
8. CC(C)Cc1ccc(C(C)CC2=CCC(CN(C)C)C2=O)cc1 (stereo unspecified)

1. > 100 µM (inactive)
2. > 100 µM (inactive)
3. 8.81 µM (inactive)
4. 19 µM (inactive)
5. > 300 µM (inactive)
6. 38.6 µM (inactive)
7. 27.4 µM (inactive)
8. 20.4 µM (inactive)

* * *

- Tested on: DMS-114
- MEASUREMENT PROTOCOL: NCI tumour cell line growth inhibition, 48 h
Where a name gives a salt, the structure may show the parent alone. Activity calls are given as the source filed them. No stated cut-off is given here; in the data, active = GI50 up to about 1.1 µM and inactive = higher.
Outcome (select one): label 1 (active), label 0 (inactive)

{"MOLECULE": "Nc1ccc2cc3ccc(N)cc3nc2c1 [PROFLAVINE SULFATE]", "STUDY SYSTEM": "DMS-114", "CLASS NAME": "label 0"}
{"MOLECULE": "CCN(CC)C(=O)CNC(=O)OC(C)(C)C", "STUDY SYSTEM": "DMS-114", "CLASS NAME": "label 0"}
{"MOLECULE": "CC(=O)c1cccc(NC(=O)C(=O)Nn2c(N)nnc2N)c1", "STUDY SYSTEM": "DMS-114", "CLASS NAME": "label 0"}
{"MOLECULE": "COC(=O)C1Cc2c(n(C)c3ccccc23)C(c2ccccc2)N1 (stereo not given)", "STUDY SYSTEM": "DMS-114", "CLASS NAME": "label 0"}
{"MOLECULE": "Cc1cc(N(CCC#N)CCC#N)ccc1/N=N/c1ccc(Br)cc1", "STUDY SYSTEM": "DMS-114", "CLASS NAME": "label 0"}
{"MOLECULE": "C[C@@](O)(/C=C/[C@H]1CC=CC(=O)O1)[C@@H](C[C@@H](O)\\C=C/C=C\\C=C\\CO)OP(=O)(O)O [FOSTRIECIN SODIUM]", "STUDY SYSTEM": "DMS-114", "CLASS NAME": "label 0"}
{"MOLECULE": "COc1ccc(-c2cnoc2-c2ccc(OC)c(OC)c2)cc1OC", "STUDY SYSTEM": "DMS-114", "CLASS NAME": "label 1"}
{"MOLECULE": "O=C1C=C[C@@]23CC1C(O)C[C@H]2C=Cc1ccccc13 (stereo not given in full)", "STUDY SYSTEM": "DMS-114", "CLASS NAME": "label 0"}

So what was the verdict on O=C1C2c3[nH]c4ccccc4c3C3CCCCC3C2C(=O)N1c1ccccc1 (stereo not given) in this test? label 0

Check the results log: what was the call for `COc1cc(OC)c(SSCCCCS(=O)O)c(OC)c1` ? label 0

* * *

For each of the molecules below, state its GI50.
- Test system: SK-MEL-28
- MEASUREMENT PROTOCOL: NCI tumour cell line growth inhibition, 48 h
Calls of active or inactive are those of the source. Rule as the data show it: active = GI50 up to about 1.1 µM and inactive = higher.

{"MOLECULE": "Cc1ccc(/N=N/c2c(-c3ccccc3)nn(C(=O)CC(=O)Nc3ccc(Cl)cc3)c2-c2ccccc2)cc1", "TEST VALUE": "> 100 µM (inactive)"}
{"MOLECULE": "Cc1cn2c(=O)c3ncn(C4OC(CO)C(O)C4O)c3n(C)c2n1 (stereo unspecified)", "TEST VALUE": "> 100 µM (inactive)"}
{"MOLECULE": "O=[N+]([O-])c1ccccc1S(=O)(=O)c1cc(Cl)cc2c1NCCC2", "TEST VALUE": "62.8 µM (inactive)"}
{"MOLECULE": "COc1c(C)cc(O)cc1C=O", "TEST VALUE": "> 100 µM (inactive)"}
{"MOLECULE": "N#Cc1nc(COCc2ccccc2)oc1N", "TEST VALUE": "> 100 µM (inactive)"}

Form: molecule = `N#Cc1c(-c2ccc(Cl)cc2)c2c([nH]c1=O)-c1cc([N+](=O)[O-])ccc1CCC2` ; GI50 = 21.2 µM (inactive)
